Entries and their measured electrical conductivity follow.
conditions: 293.15 K; 101.33 kPa; Liquid; Alternating current cell with electrodes
# value in S/m; strip the unit string

For orientation, consider the following solved cases.
Compound | Readout label | Quantitative result
CCCCC[n+]1ccn(C)c1.O=P([O-])(O)O [1-methyl-3-pentylimidazolium dihydrogen phosphate] | electrical conductivity | 0.201
CCCCn1cc[n+](C)c1.O=C([O-])O [1-butyl-3-methylimidazolium hydrogen carbonate] | electrical conductivity | 0.322
CCCCCn1cc[n+](C)c1.O=C([O-])O [3-methyl-1-pentylimidazolium hydrogen carbonate] | electrical conductivity | 0.193

I have this compound here, CCCCn1cc[n+](C)c1.O=P([O-])(O)O [1-butyl-3-methylimidazolium dihydrogen phosphate] , and I need its recorded electrical conductivity. 0.359

I have this compound here, CCC[n+]1ccn(C)c1.O=P([O-])(O)O [1-methyl-3-propylimidazolium dihydrogen phosphate] , and I need its recorded electrical conductivity. 0.536

====

Entries and their measured surface tension liquid-gas follow.
conditions: 318.15 K, Maximal bubble pressure
Numbers after ± are expanded uncertainties.

For orientation, consider the following solved cases.
Compound | Result
CCCCCn1cc[n+](C)c1C.O=S(=O)([O-])O [2,3-dimethyl-1-pentylimidazolium hydrogen sulfate] | 40.9 ± 4.1 mN/m
CCCCCn1cc[n+](C)c1.O=C([O-])O [3-methyl-1-pentylimidazolium hydrogen carbonate] | 29 ± 2.9 mN/m
CCCCn1cc[n+](C)c1.O=P([O-])(O)O [1-butyl-3-methylimidazolium dihydrogen phosphate] | 42.3 ± 4.2 mN/m

// next item, surface tension liquid-gas requested
I have this compound here, CCCCn1cc[n+](C)c1.O=C([O-])O [1-butyl-3-methylimidazolium hydrogen carbonate] , and I need its recorded surface tension liquid-gas. 32.2 ± 3.2 mN/m

====

details: 323.15 K, Maximal bubble pressure
# Condition met = surface tension liquid-gas below 40 mN/m (exclusive); Condition not met = surface tension liquid-gas at/above 40 mN/m

# count of solved cases: 4
Compound | Class
CCCCn1cc[n+](C)c1.O=P([O-])(O)O [1-butyl-3-methylimidazolium dihydrogen phosphate] | Condition not met
CCC[n+]1ccn(C)c1.O=P([O-])(O)O [1-methyl-3-propylimidazolium dihydrogen phosphate] | Condition not met
CCCCCn1cc[n+](C)c1.O=C([O-])O [3-methyl-1-pentylimidazolium hydrogen carbonate] | Condition met
CCn1cc[n+](C)c1C.O=S(=O)([O-])O [1-ethyl-2,3-dimethylimidazolium hydrogen sulfate] | Condition not met

Say whether its surface tension liquid-gas is strictly beneath 40 mN/m. Entry: CCCn1cc[n+](C)c1C.O=S(=O)([O-])O [2,3-dimethyl-1-propylimidazolium hydrogen sulfate] Condition not met

Say whether its surface tension liquid-gas is strictly beneath 40 mN/m. Entry: CCCCn1cc[n+](C)c1.O=C([O-])O [1-butyl-3-methylimidazolium hydrogen carbonate] Condition met

Say whether its surface tension liquid-gas is strictly beneath 40 mN/m. Entry: CCCCn1cc[n+](C)c1C.O=S(=O)([O-])O [1-butyl-2,3-dimethylimidazolium hydrogen sulfate] Condition not met

====

settings: 323.15 K; 101.33 kPa; Liquid; Concentric cylinders viscometry
Each record gets a class by viscosity: low group = under 30 mPa·s, middle group = from 30 mPa·s up to 70 mPa·s, high group = 70 mPa·s and over

# classify by viscosity band: CCCn1cc[n+](C)c1C.O=S(=O)([O-])O [2,3-dimethyl-1-propylimidazolium hydrogen sulfate] middle group

# classify by viscosity band: CCCCCn1cc[n+](C)c1.O=C([O-])O [3-methyl-1-pentylimidazolium hydrogen carbonate] middle group

# classify by viscosity band: CCC[n+]1ccn(C)c1.O=P([O-])(O)O [1-methyl-3-propylimidazolium dihydrogen phosphate] low group

# classify by viscosity band: CCCCCn1cc[n+](C)c1C.O=S(=O)([O-])O [2,3-dimethyl-1-pentylimidazolium hydrogen sulfate] high group

# classify by viscosity band: CCCCn1cc[n+](C)c1.O=P([O-])(O)O [1-butyl-3-methylimidazolium dihydrogen phosphate] middle group

# classify by viscosity band: CCCCn1cc[n+](C)c1C.O=S(=O)([O-])O [1-butyl-2,3-dimethylimidazolium hydrogen sulfate] high group

# classify by viscosity band: CCCCn1cc[n+](C)c1.O=C([O-])O [1-butyl-3-methylimidazolium hydrogen carbonate] low group

# classify by viscosity band: CCn1cc[n+](C)c1C.O=S(=O)([O-])O [1-ethyl-2,3-dimethylimidazolium hydrogen sulfate] middle group
